assay system: T1, human GLP-1 receptor (human, UniProt P43220 24-463)
T1 construct: whole, on cells; Used as crude membranes of stably transfected HEK293 cells; also called hGLP1R; hGLP-1R
protocol: SPA, [125I]-GLP-1 displacement, hGLP-1R membranes
pKi: −log10 of the molar value. Numbered stars: 1 amine (or outer) side, 2 acyl side, 3 side chain; on linkers, the order of the positions; unused ones are H or OH. Square brackets hold non-standard residues; d marks the D form. Side chains are listed from the residue outwards. Ends that are not written are not given here. * marks the point of attachment. C20 diacid = O=C(O)CCCCCCCCCCCCCCCCCCC(=O)*; γGlu = O=C(O)[C@H](CCC(=O)[*:2])N[*:1]; AEEA = NCCOCCOCC(=O)O; Aib = CC(C)(N)C(=O)O
# pKi values compiled below

| binder | pKi |
| --- | --- |
| YXEGTXTSDXSIXLDEKAQXEFIEYLIEGGPSSGAPPPS (Aib2; αMeF(2F)6; 3Pal10; αMeL13; K17((2-[2-(2-Amino-ethoxy)-ethoxy]-acetyl)2-(γ-Glu)-CO-(CH2)18-CO2H); Aib20; C-terminal NH2) [Example 157] | 8.05 |
| YXEGTFTSDYSILLDKKAQXAXIEYLIEGGPSSGAPPPS (Aib2; K17((2-[2-(2-Amino-ethoxy)-ethoxy]-acetyl)2-(γ-Glu)-CO-(CH2)18-CO2H); Aib20; αMeF22; C-terminal NH2) [Example 67] | 7.99 |
| YXEGTFTSDYSIXLDEKAQXAFIEYLIEGG (Aib2; αMeL13; K17((2-[2-(2-Amino-ethoxy)-ethoxy]-acetyl)2-(γ-Glu)-CO-(CH2)18-CO2H); Aib20; C-terminal NH2) [Example 63] | 8.11 |
| YXEGTXTSDYSIXLDEKAQXEFIVYLIEGGPSSGAPPPS (Aib2; αMeF(2F)6; αMeL13; K17((2-[2-(2-Amino-ethoxy)-ethoxy]-acetyl)2-(γ-Glu)-CO-(CH2)18-CO2H); Aib20; C-terminal NH2) [Example 149] | 7.58 |
| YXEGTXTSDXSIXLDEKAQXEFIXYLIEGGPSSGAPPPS (Aib2; αMeF(2F)6; 4Pal10; αMeL13; K17((2-[2-(2-Amino-ethoxy)-ethoxy]-acetyl)2-CO-(CH2)18-CO2H); Aib20; D-Glu24; C-terminal NH2) [Example 206] | 8.28 |
| YXEGTXTSDYSIXLDKKAQXXFIEYLIEGGPSSGAPPPS (Aib2; αMeF6; αMeL13; K17((2-[2-(2-Amino-ethoxy)-ethoxy]-acetyl)2-(γ-Glu)-CO-(CH2)18-CO2H); Aib20; Aib21; C-terminal NH2) [Example 143] | 8.94 |
| YXEGTXTSDYSIXLDKKAQXAXIEYLIEGGPSSGAPPPS (Aib2; αMeF6 (printed aMeF); αMeL13; K17((2-[2-(2-Amino-ethoxy)-ethoxy]-acetyl)2-(γ-Glu)-CO-(CH2)18-CO2H); Aib20; αMeF22; C-terminal NH2) [Example 76] | 8.58 |
| Y[Aib]EGTFTSDYSILLDKIAQ[Aib]AFK([AEEA-AEEA-γGlu-C20 diacid])EYLIEGGPSSGAPPPS-NH2 [Example 33] | 6.44 |
| YXEGTFTSDYSIXLDXKAQXAFIEYLIEGGPSSGAPPPS (Aib2; αMeL13; Aib16; K17((2-[2-(2-Amino-ethoxy)-ethoxy]-acetyl)2-(γ-Glu)-CO-(CH2)18-CO2H); Aib20; C-terminal NH2) [Example 60] | 8.02 |
| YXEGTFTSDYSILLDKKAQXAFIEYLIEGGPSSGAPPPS (Aib2; K17(AOC-(2-[2-(2-Amino-ethoxy)-ethoxy]-acetyl)-(γ-Glu)-CO-(CH2)18-CO2H); Aib20; C-terminal NH2) [Example 109] | 8.87 |
| YXEGTXTSDYSIXLDKKAQXXFIEYLIEGGPSSGAPPPS (Aib2; αMeF6; αMeL13; K17((2-[2-(2-Amino-ethoxy)-ethoxy]-acetyl)2-(γ-Glu)-CO-(CH2)18-CO2H); Aib20; Aad21; C-terminal NH2) [Example 137] | 8.91 |
| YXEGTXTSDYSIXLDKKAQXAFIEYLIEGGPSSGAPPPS (Aib2; αMeF6; αMeL13; K17((2-[2-(2-Amino-ethoxy)-ethoxy]-acetyl)2-(γ-Glu)-CO-(CH2)18-CO2H); Aib20; C-terminal NH2) [Example 69] | 8.91 |

Ref: patent US20200024322A1
